Molecular target: Matrilysin (Homo sapiens)
Sequence (P09237 whole entry): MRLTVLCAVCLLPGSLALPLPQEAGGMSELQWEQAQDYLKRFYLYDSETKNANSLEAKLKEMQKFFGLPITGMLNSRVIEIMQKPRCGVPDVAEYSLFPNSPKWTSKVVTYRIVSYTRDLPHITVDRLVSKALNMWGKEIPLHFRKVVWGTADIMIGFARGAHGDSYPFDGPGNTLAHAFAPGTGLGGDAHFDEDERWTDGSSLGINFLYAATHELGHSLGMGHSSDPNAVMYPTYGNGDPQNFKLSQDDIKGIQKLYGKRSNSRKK
Assay: Inhibition of MMP7 (unknown origin)-mediated omniMMP degradation
MEASURED_METRIC: IC50 (µM)

* NC(=O)[C@H](CCC(=O)O)NC(=O)[C@H](Cc1c[nH]c2ccccc12)NC(=O)[C@H](CCCN=C(N)N)NC(=O)[C@H](Cc1ccc2ccccc2c1)[C@H](O)C(=O)NO | 1.15

* * *

Property: pKi; scope: individual compounds
biological target: Insulin-degrading enzyme (Homo sapiens); assay: Inhibition of human recombinant IDE-mediated fluorescein-Abeta-(1-40)-Lys-biotin degradation; conditions: read-out: Ki(app)
pKi: −log10 of the molar value.
MEASURED_METRIC: pKi

* CC(=O)N[C@@H](CCC(=O)NCCNc1cccc2c(S(=O)(=O)O)cccc12)C(=O)N[C@H](Cc1ccc(O)cc1)C(=O)N(C(=O)c1ccccc1)[C@H](Cc1ccccc1)C(=O)N[C@H](Cc1ccc2ccccc2c1)C(=O)NO | 8.85
* N=C(N)NCCC[C@H](NC(=O)[C@@H](CC(=O)NO)Cc1ccc2ccccc2c1)C(=O)N[C@@H](Cc1c[nH]c2ccccc12)C(=O)N[C@@H](CCC(=O)O)C(N)=O | 7.66
* C=CCOC(=O)[C@H](CCCN=C(N)N)NC(=O)[C@@H](CC(=O)NO)Cc1ccc2ccccc2c1 | 6.97
* CC[C@@H](C)[C@H]1NC(=O)[C@@H](Cc2ccccc2)NC(=O)[C@@H](Cc2cnc[nH]2)NC(=O)[C@@H](CC(=O)O)NC(=O)CC[C@H](C(=O)N[C@H](Cc2c[nH]c3ccccc23)C(=O)N[C@H](CCCN=C(N)N)C(=O)N[C@H](Cc2ccc3ccccc3c2)C(=O)NO)NC(=O)[C@@H](CCCN=C(N)N)NC1=O | 6.61
* N=C(N)NCCC[C@@H](NC(=O)[C@@H](Cc1ccc(O)cc1)NC(=O)[C@H](N)CCC(=O)O)C(=O)N[C@H](Cc1ccc2ccccc2c1)C(=O)NO | 6.44

* * *

target: Insulin-degrading enzyme (Homo sapiens, UniProt P14735); experiment: Inhibition of human recombinant IDE-mediated insulin degradation; conditions: read-out: Ki(app)
Sequence (P14735 whole entry): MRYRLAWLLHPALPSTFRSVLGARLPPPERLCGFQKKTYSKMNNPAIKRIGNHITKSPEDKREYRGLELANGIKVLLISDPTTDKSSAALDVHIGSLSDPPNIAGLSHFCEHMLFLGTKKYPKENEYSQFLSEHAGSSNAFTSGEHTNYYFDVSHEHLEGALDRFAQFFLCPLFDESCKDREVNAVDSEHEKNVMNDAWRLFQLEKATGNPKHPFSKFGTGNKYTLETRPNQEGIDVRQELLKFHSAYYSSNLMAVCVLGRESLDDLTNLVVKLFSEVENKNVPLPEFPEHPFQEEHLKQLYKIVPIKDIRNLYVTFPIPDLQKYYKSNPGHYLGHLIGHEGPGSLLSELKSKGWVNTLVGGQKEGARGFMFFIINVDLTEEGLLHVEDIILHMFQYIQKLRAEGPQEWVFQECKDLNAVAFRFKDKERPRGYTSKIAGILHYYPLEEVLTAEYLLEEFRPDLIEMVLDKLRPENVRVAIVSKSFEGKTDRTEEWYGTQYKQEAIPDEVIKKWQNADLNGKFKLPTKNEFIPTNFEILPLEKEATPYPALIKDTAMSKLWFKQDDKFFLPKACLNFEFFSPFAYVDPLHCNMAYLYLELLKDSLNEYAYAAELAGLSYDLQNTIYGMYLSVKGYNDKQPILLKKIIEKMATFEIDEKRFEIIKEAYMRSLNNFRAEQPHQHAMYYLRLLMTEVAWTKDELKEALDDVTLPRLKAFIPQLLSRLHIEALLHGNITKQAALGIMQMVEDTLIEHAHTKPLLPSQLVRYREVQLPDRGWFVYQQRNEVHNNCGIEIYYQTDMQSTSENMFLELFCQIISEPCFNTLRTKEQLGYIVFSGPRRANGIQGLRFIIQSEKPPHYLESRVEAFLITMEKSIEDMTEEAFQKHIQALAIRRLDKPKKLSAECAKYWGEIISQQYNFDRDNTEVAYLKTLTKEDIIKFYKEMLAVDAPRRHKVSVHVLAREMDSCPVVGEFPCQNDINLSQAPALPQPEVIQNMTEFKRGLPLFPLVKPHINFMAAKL
pKi: −log10 of the molar value.
MEASURED_METRIC: pKi

* N=C(N)NCCC[C@H](NC(=O)[C@@H](CC(=O)NO)Cc1ccc2ccccc2c1)C(=O)N[C@@H](Cc1c[nH]c2ccccc12)C(=O)N[C@@H](CCC(=O)O)C(N)=O | 7.42
* N=C(N)NCCC[C@@H](NC(=O)[C@@H](Cc1ccc(O)cc1)NC(=O)[C@H](N)CCC(=O)O)C(=O)N[C@H](Cc1ccc2ccccc2c1)C(=O)NO | 6.08
* C=CCOC(=O)[C@H](CCCN=C(N)N)NC(=O)[C@@H](CC(=O)NO)Cc1ccc2ccccc2c1 | 5.89
* NC(N)=NCCC[C@@H](NC(=O)[C@@H](Cc1c[nH]c2ccccc12)NC(=O)[C@H](N)CCC(=O)O)C(=O)N[C@H](Cc1ccc2ccccc2c1)C(=O)NO | 5.49
